TARGET_OF_ASSAY: Vasoactive intestinal polypeptide receptor 2 (Homo sapiens) (UniProt P41587)
Sequence (whole entry): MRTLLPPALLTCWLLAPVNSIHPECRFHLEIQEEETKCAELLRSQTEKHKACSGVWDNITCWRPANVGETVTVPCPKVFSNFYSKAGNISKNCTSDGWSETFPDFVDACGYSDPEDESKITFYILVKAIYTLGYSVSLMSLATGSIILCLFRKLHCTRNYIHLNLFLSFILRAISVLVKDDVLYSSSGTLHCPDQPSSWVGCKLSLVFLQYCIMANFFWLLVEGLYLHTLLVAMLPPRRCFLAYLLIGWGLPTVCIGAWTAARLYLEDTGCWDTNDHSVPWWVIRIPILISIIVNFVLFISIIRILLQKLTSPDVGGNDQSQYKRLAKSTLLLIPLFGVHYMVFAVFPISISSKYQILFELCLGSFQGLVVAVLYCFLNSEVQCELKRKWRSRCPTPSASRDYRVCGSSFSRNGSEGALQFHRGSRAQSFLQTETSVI
ASSAY_EXPLANATION: Antagonist activity at recombinant human N-terminal signal peptide/FLAG epitope-tagged Rluc8-fused VIPR2 expressed in HEK293 cells assessed as inhibition of VIP-induced human mVenus-beta-arrestin2 binding at 5 uM preincubated for 5 mins with luciferin, coelenterazine H followed by VIP addition measured after 5 mins by BRET assay relative to control
Assay type: cell-based
Decision: inhibition >= 20% yields 1, all other cases yield 0.

CCCCCNc1ccc(S(=O)(=O)NC[C@@H](O)C[C@@H](Cc2ccccc2)C(=O)N[C@H]2c3ccccc3C[C@H]2O)cc1: 0
Cc1cc(S(=O)(=O)NC[C@@H](O)C[C@@H](Cc2ccccc2)C(=O)N[C@H]2c3ccccc3C[C@H]2O)c(C)cc1Cl: 0
C#CCNC(=O)[C@@H](Cc1ccccc1)C[C@H](O)CNS(=O)(=O)c1ccc([N+](=O)[O-])cc1: 0

Does inhibition meet or surpass 20% for O=C([C@@H](Cc1ccccc1)C[C@H](O)CNS(=O)(=O)c1ccc([N+](=O)[O-])cc1)N1CCOCC1 ?
0

Does inhibition meet or surpass 20% for C#CCNC(=O)[C@H](Cc1ccccc1)C[C@H](O)CNS(=O)(=O)c1ccc([N+](=O)[O-])cc1 ?
0

Does inhibition meet or surpass 20% for C#CCCCC(=O)NC[C@@H](O)C[C@@H](Cc1ccccc1)C(=O)N[C@H]1c2ccccc2C[C@H]1O ?
1

Does inhibition meet or surpass 20% for CCN(CC)C(=O)[C@H](Cc1ccccc1)C[C@H](O)CNS(=O)(=O)c1ccc([N+](=O)[O-])cc1 ?
0

Does inhibition meet or surpass 20% for O=C(NCc1ccc(F)cc1F)[C@@H](Cc1ccccc1)C[C@H](O)CNS(=O)(=O)c1ccc([N+](=O)[O-])cc1 ?
1

Does inhibition meet or surpass 20% for O=C(CCN1C(=O)C=CC1=O)NC[C@@H](O)C[C@@H](Cc1ccccc1)C(=O)N[C@H]1c2ccccc2C[C@H]1O ?
0
